System: 485368-065-R4-J2-PDC spheroids with HUVEC/MSC, viability
protocol description: Anticancer human tumor 485368-065-R4-J2-PDC patient-derived pancreatic carcinoma cell line growth inhibition [CLK]
setup conditions: second compound 0.1 µM; first compound 10 µM; hits give low values
Give measured viability, T/C for each item. Keep answers brief.
Report the figure in % without appending any unit label.

Which viability, T/C value is on record for CCCS(=O)(=O)Nc1ccc(F)c(C(=O)c2c[nH]c3ncc(-c4ccc(Cl)cc4)cc23)c1F + CNC(=O)c1ccc(Nc2nc(OC3CCCC3)c3c(-c4ccc5nc(C)oc5c4)c[nH]c3n2)c(OC)c1 ?
112

Also CC(Nc1ccc2c(c1)OCCn1cc(N3C(=O)OCC3C(F)F)nc1-2)C(N)=O (stereo not given) + CNC(=O)c1ccc(Nc2nc(OC3CCCC3)c3c(-c4ccc5nc(C)oc5c4)c[nH]c3n2)c(OC)c1 , if possible.
67.5

Next molecule: COc1ccc([C@@H](O)c2cc(-c3ncnc4cc(N5CCOCC5)ccc34)c(F)cc2Cl)nn1 + CNC(=O)c1ccc(Nc2nc(OC3CCCC3)c3c(-c4ccc5nc(C)oc5c4)c[nH]c3n2)c(OC)c1
87.6

Now give it for Nc1ccccc1NC(=O)c1ccc(CNC(=O)OCc2cccnc2)cc1 + CN1CCN(c2cc(C(=O)Nc3cc4cc(-c5cnn(C)c5)ccc4cn3)ccn2)CC1 too.
36.2

Try this molecule next: C=CC(=O)N1CCN(c2nc(=O)n(-c3c(C)ccnc3C(C)C)c3nc(-c4c(O)cccc4F)c(F)cc23)C(C)C1 (stereo not given) + CN1CCN(c2cc(C(=O)Nc3cc4cc(-c5cnn(C)c5)ccc4cn3)ccn2)CC1
102

---

Test system: 485368-065-R4-J2-PDC spheroids with HUVEC/MSC, viability
protocol description: Anticancer human tumor 485368-065-R4-J2-PDC cell line growth inhibition [CLK];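 further: spheroids exposed to compounds for seven days; 100% = DMSO vehicle control wells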
setup conditions: second compound 10 µM; first compound 3.16 µM; hits give low values
From the text: A high-throughput screen of multi-cell type tumor spheroids was designed to identify active combinations of […] and targeted small molecules. Complex spheroids include a stromal component modeled by human endothelial cells (HUVEC) and fibroblasts modeled by human mesenchymal stem cells (MSCs). […] Compounds. […] If the clinical Cmax for an agent had not been determined, the highest concentration tested was 10 microM. […]
Exam item: assign MET to entries whose viability, T/C is below 8% and NOT MET to entries at or above 8%. Note that a value of exactly 8% receives NOT MET.

Lab note: viability, T/C threshold 8%. Does this compound come in strictly under it? COC1C=CCC(C)C(C)S(=O)(=O)NC(=O)c2ccc3c(c2)N(CC2CCC21)CC1(CCCc2cc(Cl)ccc21)CO3 (stereo not drawn) + CNC(=O)c1ccc(Nc2nc(OC3CCCC3)c3c(-c4ccc5nc(C)oc5c4)c[nH]c3n2)c(OC)c1
NOT MET

CC(=O)O[C@H]1C(=O)[C@@]2(C)[C@H]([C@H](OC(=O)c3ccccc3)[C@]3(O)C[C@H](OC(=O)[C@H](O)[C@@H](NC(=O)c4ccccc4)c4ccccc4)C(C)=C1C3(C)C)[C@]1(OC(C)=O)CO[C@@H]1C[C@@H]2O + CN1CCN(c2cc(C(=O)Nc3cc4cc(-c5cnn(C)c5)ccc4cn3)ccn2)CC1 , same question.
MET

# repeat for C#Cc1c(F)ccc2cc(O)cc(-c3ncc4c(N5CC6CCC(C5)N6)nc(OCC56CCCN5CC(F)C6)nc4c3F)c12 (stereo not drawn) + CNC(=O)c1ccc(Nc2nc(OC3CCCC3)c3c(-c4ccc5nc(C)oc5c4)c[nH]c3n2)c(OC)c1
NOT MET

Same thing, different compound: C=C(F)C(=O)N1CCN(c2nc(OCC3CCCN3C)nc3c2CCN(c2cccc4cccc(Cl)c24)C3)CC1CC#N (stereo not drawn) + CNC(=O)c1ccc(Nc2nc(OC3CCCC3)c3c(-c4ccc5nc(C)oc5c4)c[nH]c3n2)c(OC)c1
NOT MET

Param item: COc1cccc2c1C(=O)c1c(O)c3c(c(O)c1C2=O)CC(O)(C(=O)CO)CC3OC1CC(N)C(O)C(C)O1 (stereo not drawn) + CN1CCN(c2cc(C(=O)Nc3cc4cc(-c5cnn(C)c5)ccc4cn3)ccn2)CC1
NOT MET

Similarly, CC1(C)CCC(CN2CCN(c3ccc(C(=O)NS(=O)(=O)c4ccc(NCC5CCOCC5)c([N+](=O)[O-])c4)c(Oc4cnc5[nH]ccc5c4)c3)CC2)=C(c2ccc(Cl)cc2)C1 + CNC(=O)c1ccc(Nc2nc(OC3CCCC3)c3c(-c4ccc5nc(C)oc5c4)c[nH]c3n2)c(OC)c1 ?
NOT MET

Now give it for COC1C=CCC(C)C(C)S(=O)(=O)NC(=O)c2ccc3c(c2)N(CC2CCC21)CC1(CCCc2cc(Cl)ccc21)CO3 (stereo not drawn) + CN1CCN(c2cc(C(=O)Nc3cc4cc(-c5cnn(C)c5)ccc4cn3)ccn2)CC1 too.
MET

Same for CC(Nc1ccc2c(c1)OCCn1cc(N3C(=O)OCC3C(F)F)nc1-2)C(N)=O (stereo not drawn) + CN1CCN(c2cc(C(=O)Nc3cc4cc(-c5cnn(C)c5)ccc4cn3)ccn2)CC1
MET

Thanks! And O=C(c1cc(Cc2n[nH]c(=O)c3ccccc23)ccc1F)N1CCN(C(=O)C2CC2)CC1 + CN1CCN(c2cc(C(=O)Nc3cc4cc(-c5cnn(C)c5)ccc4cn3)ccn2)CC1 ?
MET

COc1cccc2c1C(=O)c1c(O)c3c(c(O)c1C2=O)CC(O)(C(=O)CO)CC3OC1CC(N)C(O)C(C)O1 (stereo not drawn) + CNC(=O)c1ccc(Nc2nc(OC3CCCC3)c3c(-c4ccc5nc(C)oc5c4)c[nH]c3n2)c(OC)c1 , same question.
MET

How about this compound: O=c1[nH]cc(F)c(=O)[nH]1 + CN1CCN(c2cc(C(=O)Nc3cc4cc(-c5cnn(C)c5)ccc4cn3)ccn2)CC1
MET

What do we get for COc1ccc([C@@H](O)c2cc(-c3ncnc4cc(N5CCOCC5)ccc34)c(F)cc2Cl)nn1 + CN1CCN(c2cc(C(=O)Nc3cc4cc(-c5cnn(C)c5)ccc4cn3)ccn2)CC1 ?
MET

Next compound: CC1(C)CCC(CN2CCN(c3ccc(C(=O)NS(=O)(=O)c4ccc(NCC5CCOCC5)c([N+](=O)[O-])c4)c(Oc4cnc5[nH]ccc5c4)c3)CC2)=C(c2ccc(Cl)cc2)C1 + CN1CCN(c2cc(C(=O)Nc3cc4cc(-c5cnn(C)c5)ccc4cn3)ccn2)CC1
MET

Also CC1COCCN1c1cc(C2(S(C)(=N)=O)CC2)nc(-c2ccnc3[nH]ccc23)n1 (stereo not drawn) + CN1CCN(c2cc(C(=O)Nc3cc4cc(-c5cnn(C)c5)ccc4cn3)ccn2)CC1 , if possible.
MET

Moving on to the next compound: CC(Nc1ccc2c(c1)OCCn1cc(N3C(=O)OCC3C(F)F)nc1-2)C(N)=O (stereo not drawn) + CNC(=O)c1ccc(Nc2nc(OC3CCCC3)c3c(-c4ccc5nc(C)oc5c4)c[nH]c3n2)c(OC)c1
NOT MET

Same again, this time with CC(=O)O[C@H]1C(=O)[C@@]2(C)[C@H]([C@H](OC(=O)c3ccccc3)[C@]3(O)C[C@H](OC(=O)[C@H](O)[C@@H](NC(=O)c4ccccc4)c4ccccc4)C(C)=C1C3(C)C)[C@]1(OC(C)=O)CO[C@@H]1C[C@@H]2O + CNC(=O)c1ccc(Nc2nc(OC3CCCC3)c3c(-c4ccc5nc(C)oc5c4)c[nH]c3n2)c(OC)c1
NOT MET

Follow-up entry: O=C(c1cc(Cc2n[nH]c(=O)c3ccccc23)ccc1F)N1CCN(C(=O)C2CC2)CC1 + CNC(=O)c1ccc(Nc2nc(OC3CCCC3)c3c(-c4ccc5nc(C)oc5c4)c[nH]c3n2)c(OC)c1
NOT MET

Likewise for CCCS(=O)(=O)Nc1ccc(F)c(C(=O)c2c[nH]c3ncc(-c4ccc(Cl)cc4)cc23)c1F + CN1CCN(c2cc(C(=O)Nc3cc4cc(-c5cnn(C)c5)ccc4cn3)ccn2)CC1 ?
MET
